Recorded IC50 for the following compounds
biological target: human FLT3-ITD enzyme (Homo sapiens); experiment: FLT3 enzyme inhibitory ability (ADP-Glo kinase assay); details: human FLT3-ITD enzyme 10 ng, ATP 10 μM, 25° C. 1 hour

Sample answers from the record:
CCN(CC)CCCOc1c(C)cc(Nc2nc(N3N=CCC3c3ccccc3)c3sccc3n2)cc1C (centres unmarked) [Example 48]    > 500 nM
CCN(CC)CCOc1ccc(Nc2nc(N3N=CCC3c3ccccc3)c3sccc3n2)cc1 (centres unmarked) [Example 45]    250 to 500 nM
CN(C)[C@H]1CCN(c2cccc(Nc3nc(N4OCC[C@@H]4c4ccccc4)c4cc[nH]c4n3)c2)C1 [Example 126]    > 500 nM
CN(C)[C@@H]1CCN(c2cccc(Nc3nc(N4N=CCC4c4ccccc4)c4sccc4n3)c2)C1 (some centres unmarked) [Example 17]    > 500 nM
COc1cc(Nc2nc(N3OCC[C@H]3c3ccccc3)c3cc[nH]c3n2)cc(C(=O)N2CCN(CCO)CC2)c1 [Example 94]    > 500 nM
CCN1CCN(c2ccc(Nc3nc(N4N=CCC4c4ccccc4)c4sccc4n3)cc2)CC1 (centres unmarked) [Example 39]    ≥ 250 nM
CN1CCN(c2ccc(Nc3nc(N4OCC[C@H]4c4ccccc4)c4cc[nH]c4n3)cc2)CC1 [Example 74]    > 500 nM

Now examine the next entry.
Consider CCN(CC)CCCOc1ccc(Nc2nc(N3N=CCC3c3ccccc3)c3sccc3n2)cc1 (centres unmarked) [Example 47] . Its measured IC50 is 250 to 500 nM
